Values compiled from patent US6486161B1.

test system: Staphylococcus aureus 9203; test: S. aureus intracellular killing assay in bovine PMN; assay type: cell-based; details: 100X MIC, overnight incubation (18 to 21 hours)
I'd appreciate it if you could supply CFU/ml ISD (×10^3) values for the items below.

Worked examples follow.
# COMPOUND, CFU/ml ISD (×10^3)
records = [
    ("CCN1CCN(c2cc(O)c3nc4c5c6c7c(C)c(O)c5c(=O)c(c-4oc3c2)NC(=O)/C(C)=C\\C=C\\C(C)C(O)C(C)C(O)C(C)C(OC(C)=O)C(C)C(OC)/C=C/OC(C)(O7)C6=O)CC1 (stereo not shown)", "0.0 CFU/ml (×10^3)"),
    ("CO[C@H]1/C=C/O[C@@]2(C)Oc3c(C)c(O)c4c(O)c(c(/C=N/N5CCN(C)CC5)c(O)c4c3C2=O)NC(=O)/C(C)=C\\C=C\\[C@H](C)[C@H](O)[C@@H](C)[C@@H](O)[C@@H](C)[C@H](OC(C)=O)[C@@H]1C [Rifampin, reference compound]", "0.5 ± 0.2 CFU/ml (×10^3)"),
    ("COC1/C=C/OC2(C)Oc3c(C)c(O)c4c(=O)c(c5oc6cc(N7CCN(C(C)C)CC7)cc(O)c6nc-5c4c3C2=O)NC(=O)/C(C)=C\\C=C\\C(C)C(O)C(C)C(O)C(C)C(OC(C)=O)C1C (stereo not shown)", "0.0 CFU/ml (×10^3)"),
]

Proceed to the following item.
# input Hello, I am looking for reported CFU/ml ISD (×10^3) with Staphylococcus aureus 9203 for COC1/C=C/OC2(C)Oc3c(C)c(O)c4c(=O)c(c5oc6cc(N7CCN(C)CC7)cc(O)c6nc-5c4c3C2=O)NC(=O)/C(C)=C\C=C\C(C)C(O)C(C)C(O)C(C)C(OC(C)=O)C1C (stereo not shown) . Could you help?
# output 0.0 CFU/ml (×10^3)
